Measured values drawn from patent US20190231751A1 for this set.

target: JNK3 (Homo sapiens)
Sequence (P53779 whole entry, species assumed): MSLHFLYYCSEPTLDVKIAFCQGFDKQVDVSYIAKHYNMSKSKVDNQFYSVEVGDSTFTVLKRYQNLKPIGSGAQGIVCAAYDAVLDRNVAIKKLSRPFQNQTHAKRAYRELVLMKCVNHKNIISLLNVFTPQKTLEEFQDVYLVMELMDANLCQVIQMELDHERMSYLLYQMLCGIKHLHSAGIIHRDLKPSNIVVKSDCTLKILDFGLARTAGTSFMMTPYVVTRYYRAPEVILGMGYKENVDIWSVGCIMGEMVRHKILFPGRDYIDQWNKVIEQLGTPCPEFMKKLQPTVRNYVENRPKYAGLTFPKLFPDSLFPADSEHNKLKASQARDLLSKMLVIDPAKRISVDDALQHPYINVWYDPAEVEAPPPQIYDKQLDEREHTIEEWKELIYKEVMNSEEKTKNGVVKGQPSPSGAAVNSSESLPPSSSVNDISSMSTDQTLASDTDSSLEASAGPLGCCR
pIC50: −log10 of the molar value.
PROPERTY NAME: pIC50

Recorded pIC50, per entry:
STRUCTURE: O=C(Cn1c(=O)ccc2cc(C(F)(F)F)ccc21)Nc1scc(Br)c1-c1nnc[nH]1
pIC50: > 7.00
--
STRUCTURE: Cn1cnc(-c2c(Cl)csc2NC(=O)Cn2c(=O)ccc3cnc(C(F)(F)F)cc32)n1
pIC50: > 7.00
--
STRUCTURE: O=C(CN1C(=O)CCc2ncccc21)Nc1scc(Cl)c1-c1nc[nH]n1
pIC50: > 7.00
--
STRUCTURE: N#Cc1csc(NC(=O)CN2C(=O)CCc3ncccc32)c1-c1nc[nH]n1
pIC50: > 7.00
--
STRUCTURE: O=C(Cn1c(=O)ccc2cc(Br)ccc21)Nc1scc(Cl)c1-c1nc[nH]n1
pIC50: > 7.00

INPUT: Request - read-out pIC50 | tested on JNK3 (Homo sapiens) | compound O=C(Cc1cc(F)cc2ncccc12)Nc1scc(Br)c1-c1ncn[nH]1
OUTPUT: > 7.00

INPUT: Now give it for CN(C)CCN(C(=O)Cn1c(=O)ccc2cc(C(F)(F)F)ccc21)c1scc(Cl)c1-c1nc[nH]n1 too.
OUTPUT: 5.00 to 7.00

INPUT: For O=C(Cc1cccc2cnccc12)Nc1scc(Br)c1-c1ncn[nH]1 then?
OUTPUT: > 7.00

INPUT: What about O=C(Cn1c(=O)ccc2ncccc21)Nc1scc(Br)c1-c1ncn[nH]1 ?
OUTPUT: > 7.00

INPUT: Could you do the same for Cc1nnc(-c2c(C)csc2NC(=O)Cc2ccc(-c3ccncc3)cc2)[nH]1 , please?
OUTPUT: 5.00 to 7.00

INPUT: Next compound up: O=C(Cc1ccnc2ccccc12)Nc1scc(Br)c1-c1nnc[nH]1
OUTPUT: > 7.00
